molecular target: Cyclin-dependent kinase 6 (Homo sapiens, UniProt Q00534); further: in the data inactive means no Kd found up to 30 µM
Sequence (Q00534 whole entry): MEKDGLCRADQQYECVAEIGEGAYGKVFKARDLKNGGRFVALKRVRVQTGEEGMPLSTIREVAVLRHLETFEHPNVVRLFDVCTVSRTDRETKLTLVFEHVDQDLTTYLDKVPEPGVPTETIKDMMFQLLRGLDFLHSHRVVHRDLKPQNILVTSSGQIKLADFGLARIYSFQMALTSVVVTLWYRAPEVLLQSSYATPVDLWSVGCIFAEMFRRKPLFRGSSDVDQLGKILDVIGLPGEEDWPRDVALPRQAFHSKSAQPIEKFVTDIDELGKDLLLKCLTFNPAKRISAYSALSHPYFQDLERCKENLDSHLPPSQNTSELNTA
Active and inactive are the calls of the source.
Answer with one of the outcomes yes (1) = active, no (0) = inactive

**Query** Write down the call the test reported for this compound. Item: `C[C@@H](Nc1cc(F)cc(F)c1)c1cc(C(=O)N(C)C)cc2c(=O)cc(N3CCOCC3)oc12`
**Result** no (0)

**Query** Recorded test call requested for `CNC(=O)CN1CCC(Oc2cc3c(Nc4cccc(Cl)c4F)ncnc3cc2OC)CC1`
**Result** no (0)

**Query** Test call for this compound, please: `Cc1cn(-c2cc(NC(=O)c3ccc(C)c(Nc4nccc(-c5cccnc5)n4)c3)cc(C(F)(F)F)c2)cn1`
**Result** no (0)

**Query** Call for entry `OCCn1cc(-c2cnc3nnn(Cc4ccc5ncccc5c4)c3n2)cn1` :
**Result** no (0)

**Query** Answer briefly: the call reported for `Nc1nc(N)c2nc(-c3cccc(O)c3)c(-c3cccc(O)c3)nc2n1` in this assay.
**Result** no (0)

**Query** So what was the verdict on `CC[C@@H]1C(=O)N(C)c2cnc(Nc3ccc(C(=O)N[C@H]4CC[C@H](N5CCN(CC6CC6)CC5)CC4)cc3OC)nc2N1C(C)C` in this test?
**Result** no (0)

**Query** Call for entry `O=C1NC(=O)/C(=C/c2ccc3nccc(-c4ccncc4)c3c2)S1` :
**Result** no (0)

**Query** In this assay, the call recorded for `Cc1ccc(NC(=O)c2ccc(CN3CC[C@H](N(C)C)C3)c(C(F)(F)F)c2)cc1Nc1nccc(-c2cncnc2)n1` was what?
**Result** no (0)

**Query** What did this assay record as the result for `COCCNCc1ccc(-c2cc3nccc(Oc4ccc(NC(=S)NC(=O)Cc5ccc(F)cc5)cc4F)c3s2)nc1` ?
**Result** no (0)

**Query** Outcome logged for `Cc1ccc(S(=O)(=O)Nc2nc3ccccc3nc2Nc2ccc3nsnc3c2)cc1` in this assay:
**Result** no (0)

**Query** Per the records of this test, what outcome belongs to `Cc1nc(N)sc1-c1ccnc(Nc2ccc(N3CCOCC3)cc2)n1` ?
**Result** yes (1)

**Query** // return assay outcome for `Cc1ccc(-n2nc(C(C)(C)C)cc2NC(=O)NCc2cc(F)ccc2Oc2ccc3c(cnn3CCO)c2)cc1`
**Result** no (0)

**Query** Could you please tell me the result logged for `Cn1cc(-c2ccc(F)c(C(F)(F)F)c2)nc1C1CCN(c2ncnc3[nH]ncc23)CC1` in this assay?
**Result** no (0)

**Query** Given `O=c1sn(-c2cccc3ccccc23)c(=O)n1Cc1ccccc1` , state the outcome it received in this test.
**Result** no (0)

**Query** Dear colleague, could you share the recorded outcome for `CNC(=O)c1ccc(C)c(-n2c(C)cc(OCc3ccc(F)cc3F)c(Br)c2=O)c1` when you have a moment?
**Result** no (0)

**Query** Per the records of this test, what outcome belongs to `COc1cc2nccc(Oc3ccc(NC(=O)NC4CC4)c(Cl)c3)c2cc1C(N)=O` ?
**Result** no (0)

**Query** // outcome(item) with item = `C=CC(=O)N1CCC(Oc2cc3c(Nc4ccc(Cl)c(Cl)c4F)ncnc3cc2OC)CC1`
**Result** no (0)

**Query** State the result this test recorded for `Cn1cc(-c2ccc3nnc(C(F)(F)c4ccc5ncccc5c4)n3n2)cn1` .
**Result** no (0)

**Query** Hi team, can someone confirm the assay call for `COc1cc2nccc(Oc3ccc(NC(=O)Nc4cc(C)on4)c(Cl)c3)c2cc1OC` ?
**Result** no (0)

**Query** How was `C[C@@H]1CN(Cc2ccc(F)cc2)[C@@H](C)CN1C(=O)c1cc2c(C(=O)C(=O)N(C)C)cn(C)c2cc1Cl` classified in this test?
**Result** no (0)

**Query** // outcome(item) with item = `C[C@@H](c1ccc2nccn2c1)n1nnc2ncc(-c3cnn(C)c3)nc21`
**Result** no (0)

**Query** Test call for this compound, please: `O=C(c1ccc(F)c(F)c1Nc1ccc(I)cc1F)N1CC(O)([C@@H]2CCCCN2)C1`
**Result** no (0)

**Query** Recorded test call requested for `O=C(O)[C@]1(Cc2cccc(Nc3nccs3)n2)CC[C@@H](Oc2cccc(Cl)c2F)CC1`
**Result** no (0)

**Query** Which outcome did this test record for the compound Cc1cc2c(F)c(Oc3ncnn4cc(OC[C@@H](C)OC(=O)[C@H](C)N)c(C)c34)ccc2[nH]1 [BRIVANIB ALANINATE] ?
**Result** no (0)

###

target: Aurora kinase B (Homo sapiens, UniProt Q96GD4); further: in the data inactive means no Kd found up to 30 µM
Sequence (Q96GD4 whole entry): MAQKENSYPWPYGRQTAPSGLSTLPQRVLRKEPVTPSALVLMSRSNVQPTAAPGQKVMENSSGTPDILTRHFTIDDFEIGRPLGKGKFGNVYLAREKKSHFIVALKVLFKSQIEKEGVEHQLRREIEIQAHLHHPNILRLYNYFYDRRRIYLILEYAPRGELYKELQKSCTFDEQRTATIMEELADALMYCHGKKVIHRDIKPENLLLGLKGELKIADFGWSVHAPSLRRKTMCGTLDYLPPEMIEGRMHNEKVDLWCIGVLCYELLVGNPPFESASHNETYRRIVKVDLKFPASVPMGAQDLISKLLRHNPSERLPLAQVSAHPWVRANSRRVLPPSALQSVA
Active and inactive are the calls of the source.
Result category, one only: active, inactive

**Query** I would be grateful if you could indicate the recorded call for O=C(Nc1ccc(-c2ccnc(Nc3ccc(N4CCOCC4)cc3)n2)cc1)C1CCCN1 (stereo not drawn) [XL-019] .
**Result** inactive

**Query** Call for entry CC(=O)Nc1cccc(-n2c(=O)n(C3CC3)c(=O)c3c(Nc4ccc(I)cc4F)n(C)c(=O)c(C)c32)c1 [TRAMETINIB] :
**Result** inactive

**Query** Hi, do you know how Cc1cc2c(F)c(Oc3ncnn4cc(OC[C@@H](C)OC(=O)[C@H](C)N)c(C)c34)ccc2[nH]1 [BRIVANIB ALANINATE] came out in this test?
**Result** inactive

**Query** Which result was noted for this compound in the test: COCCNCc1ccc(-c2cc3nccc(Oc4ccc(NC(=S)NC(=O)Cc5ccc(F)cc5)cc4F)c3s2)nc1 [GLESATINIB]
**Result** inactive

**Query** Please state the recorded outcome for this compound: CCCS(=O)(=O)Nc1ccc(F)c(C(=O)c2c[nH]c3ncc(-c4ccc(Cl)cc4)cc23)c1F [VEMURAFENIB]
**Result** inactive

**Query** Status in this test for CCN1CCN(Cc2ccc(-c3cc4c(N[C@H](C)c5ccccc5)ncnc4[nH]3)cc2)CC1 [AEE-788] ?
**Result** inactive

**Query** Could you please tell me the result logged for Cc1ccc(NC(=O)c2ccc(CN3CC[C@H](N(C)C)C3)c(C(F)(F)F)c2)cc1Nc1nccc(-c2cncnc2)n1 [BAFETINIB] in this assay?
**Result** inactive

**Query** For CNC(=O)c1ccc(C)c(-n2c(C)cc(OCc3ccc(F)cc3F)c(Br)c2=O)c1 [PH-797804] , which call appears in the assay record?
**Result** inactive

**Query** Per the records of this test, what outcome belongs to C[C@@H](Nc1cc(F)cc(F)c1)c1cc(C(=O)N(C)C)cc2c(=O)cc(N3CCOCC3)oc12 [AZD-8186] ?
**Result** inactive

**Query** Just curious, what result did `CN1CC[C@@H](c2c(O)cc(O)c3c(=O)cc(-c4ccccc4Cl)oc23)[C@@H]1CO` get here?
**Result** inactive

**Query** Look up the recorded call for CCS(=O)(=O)N1CC(CC#N)(n2cc(-c3ncnc4[nH]ccc34)cn2)C1 [BARICITINIB] in this test.
**Result** inactive

**Query** Dear all, I need the recorded test outcome for CNS(=O)(=O)Nc1nccc(Cc2c(C)c3ccc(Oc4ncccn4)cc3oc2=O)c1F [AVUTOMETINIB] , thank you.
**Result** inactive

**Query** Call for entry C1=C/COCc2cc(ccc2OCCN2CCCC2)Nc2nccc(n2)-c2cccc(c2)COC/1 [PACRITINIB] :
**Result** active

**Query** What classification did O=C1NC(=O)/C(=C/c2ccc3nccc(-c4ccncc4)c3c2)S1 [GSK-1059615] end up with in this test?
**Result** inactive

**Query** Hi, sorry to bother you, what did the test record for `N[C@@H]1CCCN(c2c(/C=C3\SC(=O)NC3=O)cccc2-c2ccccc2)C1` ?
**Result** inactive

**Query** Please state the recorded outcome for this compound: `Cc1ccc(S(=O)(=O)Nc2nc3ccccc3nc2Nc2ccc3nsnc3c2)cc1`
**Result** inactive

**Query** Can you look up the reported call for COc1cc2nccc(Oc3ccc(NC(=O)NC4CC4)c(Cl)c3)c2cc1C(N)=O [LENVATINIB] for me?
**Result** active

**Query** Which outcome was entered for the compound Cn1cc(-c2ccc3nnc(C(F)(F)c4ccc5ncccc5c4)n3n2)cn1 [JNJ-38877605] in this test?
**Result** inactive

**Query** In this assay, the call recorded for O=C(c1ccc(F)c(F)c1Nc1ccc(I)cc1F)N1CC(O)([C@@H]2CCCCN2)C1 [COBIMETINIB] was what?
**Result** inactive

**Query** Look up the recorded call for `Cc1cc(-c2cc(O)ccc2Cl)cc2nnc(Nc3ccc(OCCN4CCCC4)cc3)nc12` in this test.
**Result** inactive

**Query** Field: outcome | Entry: CC(C)Nc1cc(-c2c[nH]c(C(=O)N[C@H](CO)c3cccc(Cl)c3)c2)c(Cl)cn1 [ULIXERTINIB]
**Result** inactive

**Query** Field: outcome | Entry: CO[C@H]1C[C@@H]2CC[C@@H](C)[C@@](O)(O2)C(=O)C(=O)N2CCCC[C@H]2C(=O)O[C@H]([C@H](C)C[C@@H]2CC[C@@H](OCCO)[C@H](OC)C2)CC(=O)[C@H](C)/C=C(\C)[C@@H](O)[C@@H](OC)C(=O)[C@H](C)C[C@H](C)/C=C/C=C/C=C/1C [EVEROLIMUS]
**Result** inactive

**Query** What call does the record list for COc1ccc(-c2ccc3c(N4CCOC[C@@H]4C)nc(N4CCOC[C@@H]4C)nc3n2)cc1CO [AZD-8055] ?
**Result** inactive

**Query** Test call for this compound, please: COc1cc(OC)c(/C=C/S(=O)(=O)Cc2ccc(OC)c(NCC(=O)O)c2)c(OC)c1 [RIGOSERTIB]
**Result** inactive

**Query** Can you look up the reported call for CNC(=O)CN1CCC(Oc2cc3c(Nc4cccc(Cl)c4F)ncnc3cc2OC)CC1 [SAPITINIB] for me?
**Result** inactive

**Query** Hey, what did the test say about CNC(=O)c1ccc(-c2cnc3ncc(Cc4ccc5ncccc5c4)n3n2)cc1F [CAPMATINIB] ?
**Result** inactive

**Query** Please indicate how the test categorized C[C@@H](c1ccc2nccn2c1)n1nnc2ncc(-c3cnn(C)c3)nc21 [SAVOLITINIB] .
**Result** inactive

**Query** Assay outcome for COC(=O)N[C@@H](C)CNc1nccc(-c2cn(C(C)C)nc2-c2cc(Cl)cc(NS(C)(=O)=O)c2F)n1 [ENCORAFENIB] : what was it?
**Result** inactive

**Query** Hi, sorry to bother you, what did the test record for Cc1cc([C@@H](C)Nc2ccccc2C(=O)O)c2nc(N3CCOCC3)cc(=O)n2c1 [AZD-6482] ?
**Result** inactive

**Query** Recorded test outcome, item CCn1c(=O)c(-c2cc[nH]n2)cc2c(C)nc(N)nc21 [VOXTALISIB]
**Result** inactive

**Query** Identify the outcome logged in this assay for the compound shown: CC[C@H](Nc1ncnc2[nH]cnc12)c1nc2cccc(F)c2c(=O)n1-c1ccccc1 [IDELALISIB]
**Result** inactive

**Query** Outcome logged for Cn1cc(-c2ccc(F)c(C(F)(F)F)c2)nc1C1CCN(c2ncnc3[nH]ncc23)CC1 [LY-2584702] in this assay:
**Result** inactive

**Query** Please state the recorded outcome for this compound: C[C@@H]1CN(Cc2ccc(F)cc2)[C@@H](C)CN1C(=O)c1cc2c(C(=O)C(=O)N(C)C)cn(C)c2cc1Cl [TALMAPIMOD]
**Result** inactive
